Entries and their screen value values follow.
B1: SH3BP2 peptide 408-423 (SH3 domain-binding protein 2), 16-mer library wild type / TNKS ANK (TNKS 12 ANK repeats, residues 174-649) (parent)
chain 1: PQLPHLQRSPPDGQSF
chain 2: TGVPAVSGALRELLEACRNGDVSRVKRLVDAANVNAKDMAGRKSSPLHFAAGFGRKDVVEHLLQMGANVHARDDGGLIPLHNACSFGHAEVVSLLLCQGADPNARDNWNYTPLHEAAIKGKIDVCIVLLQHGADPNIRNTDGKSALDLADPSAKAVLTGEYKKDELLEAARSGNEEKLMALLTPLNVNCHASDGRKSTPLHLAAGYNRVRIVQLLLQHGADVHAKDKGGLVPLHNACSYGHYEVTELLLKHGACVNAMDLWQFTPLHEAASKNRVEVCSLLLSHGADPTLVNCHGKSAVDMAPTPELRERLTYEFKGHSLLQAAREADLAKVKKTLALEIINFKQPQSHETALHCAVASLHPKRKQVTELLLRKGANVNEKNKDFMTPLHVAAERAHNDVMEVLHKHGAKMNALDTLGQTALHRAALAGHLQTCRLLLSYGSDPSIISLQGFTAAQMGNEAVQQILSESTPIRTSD

Variants of: B1
Test: proteomic peptide phage display deep mutational scan (ProP-PD DMS): M13 P8 16-mer library selected against immobilised GST-tagged bait for four days (rounds), NGS of the eluted pools per day and pseudo-replica
Conditions: with TNKS ANK (TNKS 12 ANK repeats, residues 174-649); bait immobilised on MaxiSorp plates (10 µg), library pre-cleared on GST, 2 h binding at 4 °C, five washes; one round per day, days 1-4; value from days 2 and 3; keep out of graded; scale: average fractional NGS count over selection days 2 and 3
Answer field: number only, no words.

# annotated cases, reported screen value shown
variant-annotation | screen value
chain 1 L3W | 5.02e-05
chain 1 P11I | 0
chain 1 L3D | 9.07e-05
chain 1 Q14D | 6.15e-05
chain 1 D12T | 6.11e-05

Q) Output screen value of chain 1 P11Q
A) 0

Q) Annotate the variant chain 1 Q14P with its measured screen value.
A) 3.92e-05

Q) Supply screen value value. Item: chain 1 F16S
A) 9.92e-05

Q) // fetch screen value given entry chain 1 S15G
A) 9.21e-05

Q) Give screen value for chain 1 D12P
A) 4.27e-05

Q) Note screen value for the variant shown: chain 1 P10R
A) 5.9e-05

Q) Supply measured screen value of chain 1 P11T in your reply.
A) 7.13e-05

Q) Using the record for chain 1 L3G , state its measured screen value.
A) 6.04e-05

Q) Return reported screen value. Input variant: chain 1 H5A
A) 0.000105

Q) Identify screen value associated with the variant chain 1 R8S
A) 8.91e-05

Q) Complete the entry with screen value for chain 1 Q14W
A) 0.000114

Q) // fetch screen value given entry chain 1 Q7R
A) 0.000135

Q) For the variant chain 1 H5W , give its measured screen value value.
A) 7.66e-05

Q) Return reported screen value. Input variant: chain 1 Q7N
A) 0.000104

Q) Tell us which screen value value is on record for chain 1 Q7P
A) 3e-05

Q) Input chain 1 D12F , output reported screen value.
A) 0

Q) Tell us which screen value value is on record for chain 1 S9R
A) 9.97e-05

Q) Identify screen value associated with the variant chain 1 R8Y
A) 0

Q) Supply screen value value. Item: chain 1 R8W
A) 0
